Molecular target: T1, human Factor XIIa-beta (human, UniProt P00748 354-615, limits assumed)
T1 construct: Bought from Enzyme Research Laboratories; also called FXIIa beta; FXIIa-beta
T1 sequence: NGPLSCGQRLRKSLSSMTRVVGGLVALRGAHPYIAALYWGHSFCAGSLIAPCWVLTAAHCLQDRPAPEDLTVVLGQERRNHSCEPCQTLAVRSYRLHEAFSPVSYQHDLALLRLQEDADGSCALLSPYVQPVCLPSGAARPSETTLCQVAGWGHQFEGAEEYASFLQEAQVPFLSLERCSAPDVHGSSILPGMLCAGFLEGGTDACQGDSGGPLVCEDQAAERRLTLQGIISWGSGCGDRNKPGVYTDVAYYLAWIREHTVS
Test: SPR (Biacore), KD against parental 3F7
Endpoint name: Fold affinity improvement (fold)
Answers are plain numbers, in fold.

Guide cases for Fold affinity improvement, answers given:
>  <Binder>
VR115 (antibody, V domains shown) VH: EVQLLESGGGLVQPGGSLRLSCAASGFTFSKYIMQWVRQAPGKGLEWVSGIDIPTKGTVYADSVKGRFTISRDNSKNTLYLQMNSLRAEDTAVYYCARALPRSGYLISPHYYYYALDVWGQGTTVTVSS VL: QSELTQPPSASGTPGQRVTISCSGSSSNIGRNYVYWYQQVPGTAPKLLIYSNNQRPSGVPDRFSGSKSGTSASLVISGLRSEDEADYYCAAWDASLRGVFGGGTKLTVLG

>  <Units symbol>
fold

>  <Fold affinity improvement>
57

$$$$
>  <Binder>
VR119 (antibody, V domains shown) VH: EVQLLESGGGLVQPGGSLRLSCAASGFTFSKYIMQWVRQAPGKGLEWVSGINVPLYGTVYADSVKGRFTISRDNSKNTLYLQMNSLRAEDTAVYYCARALPRSGYLISPHYYYYALDVWGQGTTVTVSS VL: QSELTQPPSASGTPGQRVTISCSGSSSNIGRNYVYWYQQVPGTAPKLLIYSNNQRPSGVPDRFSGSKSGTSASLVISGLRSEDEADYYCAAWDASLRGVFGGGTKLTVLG

>  <Units symbol>
fold

>  <Fold affinity improvement>
24

$$$$

### Prompt Recorded Fold affinity improvement for monoclonal antibody 3F7 (fully human IgG4/lambda) (antibody, V domains shown, also called 3F7 mAb; MAb 3F7) VH: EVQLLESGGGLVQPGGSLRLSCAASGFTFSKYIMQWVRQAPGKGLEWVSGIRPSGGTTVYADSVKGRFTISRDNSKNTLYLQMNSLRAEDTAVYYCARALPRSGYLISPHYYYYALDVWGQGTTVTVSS VL: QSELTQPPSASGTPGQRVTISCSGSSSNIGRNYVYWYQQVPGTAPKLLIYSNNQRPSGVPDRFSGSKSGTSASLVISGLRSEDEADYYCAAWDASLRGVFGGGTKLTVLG , please?
### Response 1
